System: SR leukemia
METHOD: NCI-60 one-dose screen, 48 h
REPORTED CONDITIONS: 10 µM unless noted
The panel holds about 83,000 compounds, 20% with a hit somewhere; the sample as a whole holds those more often. The source made the active and inactive calls. How the source made its calls: active means growth percent below 10; inactive means the rest.
Return exactly one item of active, inactive

compound=O=C(O)c1c(=O)cccc2ssc12 group=active
compound=CSc1ccc(-c2ccccc(=O)c2O)cc1 group=active
compound="CC1=C(O)C(=O)C(C(C#N)(C#N)C(C#N)C#N)C1 (stereo not given)" group=inactive
compound=O=C(/C=C/C=C/c1ccc2c(c1)OCO2)N/N=C\c1ccc(O)cc1O group=inactive
compound=COc1ccc(S(=O)(=O)N2CCN(C)CC2)cc1NC(=O)c1[nH]c(C)c2c1CCCCC2=O group=inactive
compound=O=C(Nc1ccccc1Cl)c1ccc(NC2=C(Cl)C(=O)N(C3CCCCC3)C2=O)cc1 group=active
compound=O=C1/C(=C/c2ccccc2O)N=C2SCCCN12 group=inactive
compound=Clc1ccc2c(NCCNc3nc(N4CCCCC4)nc4ccccc34)ccnc2c1 group=active

Short answer needed: outcome of this test for COc1cc(C2CC(=O)c3ccccc3N2)cc(OC)c1OC (stereo not given) ?
inactive

Short answer needed: outcome of this test for `NC(=NCCCOc1ccc(Cl)cc1)Nc1ccc(Cl)cc1` ?
active

Short answer needed: outcome of this test for `Cn1c(=O)[nH]c(=O)c2nc(CCC(=O)NCCC(=O)O)c(=O)[nH]c21` ?
inactive

Short answer needed: outcome of this test for `C#Cc1cccc(NC(=O)c2ccccc2NC(=O)CCl)c1` ?
inactive

Short answer needed: outcome of this test for `CCN(CC)c1ccc(/C=N\NC(=O)/C=C/C=C/c2ccc3c(c2)OCO3)c(O)c1` ?
inactive

Short answer needed: outcome of this test for `COc1ccc(-n2nc(C)c3c(Nc4ccc(NC(=O)Nc5c(Cl)cccc5Cl)cc4)ncnc32)cc1` ?
inactive

###

System: NCI/ADR-RES ovarian
METHOD: NCI-60 one-dose screen, 48 h
REPORTED CONDITIONS: 10 µM unless noted
The panel holds about 83,000 compounds, 20% with a hit somewhere; the sample as a whole holds those more often. Activity calls are given as the source filed them. Rule for the calls: active = growth percent below 10; inactive = the rest.
Return exactly one item of active, inactive

Short answer needed: outcome of this test for `CC(=O)Nc1ccc(S(=O)(=O)Nc2cccc(-c3nc(-c4ccc(NC(=O)c5cccnc5)cc4Cl)no3)c2)cc1` ?
inactive

Short answer needed: outcome of this test for `O=C(Nc1ccc(Cl)cc1)c1cc2cc(F)ccc2cc1O` ?
active

Short answer needed: outcome of this test for `Cn1cc(C(=O)c2nc(-c3c[nH]c4ccccc34)no2)c2ccccc21` ?
inactive

Short answer needed: outcome of this test for `O=C(COc1cccc(/C=C2\COc3ccc(Cl)cc3C2=O)c1)c1ccc(Cl)cc1` ?
inactive

Short answer needed: outcome of this test for `Cn1c(O)c(N=NC(=O)c2cc(-c3ccccc3)on2)c2ccccc21` ?
inactive

Short answer needed: outcome of this test for `N#Cc1c(N)n(CCNC(=O)c2ccccc2)c2nc3ccccc3nc12` ?
inactive

Short answer needed: outcome of this test for CCCCCCN(CCCCCC)CCC(O)c1ccc2ccccc2c1 (stereo not given) ?
inactive

###

// reported growth for each item listed
Test system: IGROV1 ovarian
METHOD: NCI-60 one-dose screen, 48 h (100 = growth as untreated, 0 = no growth, -100 = all killed)
REPORTED CONDITIONS: 10 µM unless noted
About 83,000 compounds went through this panel and 20% of them were active in at least one assay; those are over-represented in the sample as a whole.
Response body: numeric value in %, unit text excluded.

The examples below pair each entry with its known result.
compound=Cc1cc(N2CCN(c3ccnc4cc(Cl)ccc34)CC2)nc(N2CCOCC2)n1 tgt="IGROV1 ovarian" experimental_value=97.7
compound="COc1cc(C)c(C2C(C#N)=C(N)Oc3n[nH]c(-c4cccs4)c32)cc1C(C)C (stereo not drawn)" tgt="IGROV1 ovarian" experimental_value=108

Moving on to the next compound.
Using the record for `CC[C@@H]1O[C@H](O[C@@H](c2cnc[nH]2)[C@H](NC(=O)c2nc([C@H](CC(N)=O)NC[C@@H](N)C(N)=O)nc(N)c2C)C(=O)N[C@H](C)[C@H](O)[C@H](C)C(=O)N[C@@H](C(=O)NCCc2nc(-c3nc(C(=O)NCCCCN=C(N)N)cs3)cs2)[C@@H](C)O)[C@H](O[C@@H]2O[C@H](CO)[C@H](O)[C@H](OC(N)=O)[C@@H]2O)[C@H](C)[C@@H]1C` , report its growth.
45.5
